Target: T1, EGFR (wild type) expressed on target cells (UniProt P00533 25-1210, limits assumed)
T1 construct: whole, on cells; also called F98npEGFR; U87MG-EGFR
Assay: flow cytometry of the subclone supernatant on F98npEGFR cells (Geom mean)
property_measured: binding result

Which measured binding result value corresponds to 20-2-37 (antibody, V domains shown, also called 98B10B12) VH: EVMLVESGGGLVKPGGSLKLSCAASRFTFSNYAMSWVRQTPEKRLEWVATITSGGSYTYYPDSVKGRFTISRDNAKNTLYLQMSSLRSEDTAMYYCARKDYGNYWFAYWGQGTLVTVSA VL: DVVMTQTPLSLPVSLGDQASISCRSSQSLVHSDGNTYLHWYLQKPGQSPKLLIYKVSNRFSGVPDRFSGSGSGTDFTLKISRVEAEDLGVYFCSQSIHVPWTFGGGTKLEIK ?
no binding

Which measured binding result value corresponds to murine antibody 20-2-1 (clone 83F7B2) (antibody, V domains shown, Murine monoclonal antibody purified from the subclone supernatant) VH: QIQLVQSGPELKKPGETVKISCKASGYTFTDFSMHWVKQAPGKGLKWMGWINTETGEPSYADDFKGRFAFSLETSASTAYLQINNLKNEDTATYFCANYGYDVRGDYWGQGTTLTVSS VL: EIVLTQSPTTMAASPGEKITITCSASSSISSNYLHWYQQKPGFSPKLLIYGTSNLASGVPARFSGSGSGTSYSLTIGTMEAEDVATYYCHQGSSIPLTFGAGTKLELK ?
no binding

Which measured binding result value corresponds to 20-2-22 (antibody, V domains shown, also called 57D8C3) VH: EVQLQQSGAELVRPGALVKLSCKASGFNIKDYYMHWVKQRPEQGLEWIGWIDPENGNTIYDPKFQGKASITADTSSNTACLQLSSLTSEDTAVYYCARGWFAYWGQGTLVTVSA VL: DILMTQSPSSLAMSVGQKVTMSCKSSQSLLNSSNQKNHLAWYQQKPGQSPKLLVYFASTRQSGVPDRFIGSGSGTDFTLTISSVQAEDLADYFCQQHYSTPLTFGAGTKLELK ?
no binding
